Test system: SNB-19 CNS
Assay: NCI-60 one-dose screen, 48 h (100 = growth as untreated, 0 = no growth, -100 = all killed)
Details: 10 µM unless noted
This is part of a sample that, as a whole, favours compounds with a hit. Of some 83,000 tested, about 20% had one in any assay.
Each record's class is read off its growth using these ranges: low band (below 10%), middle band (10% to below 70%), high band (70% or more)

1. Cn1c(Nc2ccc(C(F)(F)F)cc2)nc2cc(Oc3ccnc(-c4ncc(C(F)(F)F)[nH]4)c3)ccc21 | middle band
2. FC(F)(F)c1ccc(CNc2ccc(Cc3c[nH]c4ncc(Cl)cc34)cn2)cn1 | middle band

Class (by measured growth) for CCCC(=O)OCC1OC(n2cnc3c(=S)nc[nH]c32)C(OC(=O)CCC)C1OC(=O)CCC (centres undefined)
high band

Class (by measured growth) for "CN1CCN(c2ccc(C(=O)Nc3n[nH]c4ccc(Cc5cc(F)cc(F)c5)cc34)c(NC3CCOCC3)c2)CC1"
low band

Class (by measured growth) for "Cc1cc(Nc2ncc(Cl)c(Nc3ccccc3S(=O)(=O)C(C)C)n2)c(OC(C)C)cc1C1CCNCC1"
low band

Class (by measured growth) for "Cc1cc(N(CCNc2ccnc3cc(Cl)ccc23)Cc2ccc3c(c2)OCO3)nc(N2CCN(C)CC2)n1"
middle band

Class (by measured growth) for "C=CCN1C(=O)c2cccc3c(-c4ccc5c(c4)ncn5C4CCCCC4)ccc(c23)C1=O"
high band

Class (by measured growth) for "O=C(O)c1ccc2c(c1)nc(Nc1cccc(Cl)c1)c1ccncc12"
middle band

----------
System: SNB-75 CNS
Experiment: NCI-60 one-dose screen, 48 h (100 = growth as untreated, 0 = no growth, -100 = all killed)
Settings: 10 µM unless noted
The panel holds about 83,000 compounds, 20% with a hit somewhere; the sample as a whole holds those more often. Active and inactive are the calls of the source. How the source made its calls: active means growth percent below 10; inactive means the rest.
metricName: growth

1. CCc1cc2c(cc1N1CCC(N3CCOCC3)CC1)C(C)(C)c1[nH]c3cc(C#N)ccc3c1C2=O | -90.3% (active)

// lookup growth for "Cn1ncc(Cl)c1-c1cc(C(=O)N[C@H](CN)Cc2ccc(F)c(F)c2)oc1Cl"
-86.4% (active)

// lookup growth for "Cc1ccc(-n2nc(C(C)(C)C)cc2NC(=O)NCc2cc(F)ccc2Oc2ccc3c(cnn3CCO)c2)cc1"
32.7% (inactive)

// lookup growth for "CCc1ccc(/C=C/c2ccc(O)c3ncccc23)[n+](C)c1"
48.1% (inactive)

// lookup growth for "Cc1cc(Nc2cc(N3CCN(C)CC3)nc(/C=C/c3ccccc3)n2)n[nH]1"
-97.1% (active)

// lookup growth for "O=C(c1ccc(/C=C/c2n[nH]c3ccccc23)cc1)N1CCNCC1"
0.841% (active)

----------
Test system: SF-295 CNS
Assay: NCI-60 one-dose screen, 48 h (100 = growth as untreated, 0 = no growth, -100 = all killed)
Conditions: 10 µM unless noted
About 83,000 compounds went through this panel and 20% of them were active in at least one assay; those are over-represented in the sample as a whole.
Response field label takes Condition met when growth is strictly below 10% and Condition not met in all other cases.

These solved cases illustrate the format of a correct answer.
1) C=CC(=O)N(C)[C@H]1C[C@H]2OC(C)(C1OC)n1c3ccccc3c3c4c(c5c6ccccc6n2c5c31)C(=O)NC4 (some centres not stated) | Condition met
2) CCc1nc(C(N)=O)c(Nc2ccc(N3CCC(N4CCN(C)CC4)CC3)c(OC)c2)nc1NC1CCOCC1 | Condition not met
3) N#Cc1c(C(F)(F)F)cc(Nc2ccc3nc(NCCN4CCCC4)oc3c2)n2c1nc1ccccc12 | Condition not met
4) CO[C@H]1C[C@@H]2CC[C@@H](C)[C@@](O)(O2)C(=O)C(=O)N2CCCC[C@H]2C(=O)O[C@H]([C@H](C)C[C@@H]2CC[C@@H](O)[C@H](OC)C2)CC(=O)[C@H](C)/C=C(\C)[C@@H](O)[C@@H](OC)C(=O)[C@H](C)C[C@H](C)\C=C/C=C/C=C/1C | Condition not met
5) CCc1nc2cc(/C=C/C(=O)NO)c(F)cc2c(=O)n1CCc1ccccc1 | Condition not met

Could you please tell me whether growth recorded for COc1ccc(-c2cc3c(oc2=O)-c2ccccc2OC3OC(C)=O)cc1 (configuration not stated) is less than 10%?
Condition not met

Could you please tell me whether growth recorded for "CN1CCN(CCOc2cc(OC3CCOCC3)c3c(Nc4c(Cl)ccc5c4OCO5)ncnc3c2)CC1" is less than 10%?
Condition not met

Could you please tell me whether growth recorded for "CCn1cc(-c2ccnc3[nH]c(-c4cccc(CN(C)C)c4)cc23)c(-c2ccc(NC(=O)N(C)C)cc2)n1" is less than 10%?
Condition not met

Could you please tell me whether growth recorded for "C[C@@H](Oc1cc(C(=O)Nc2ccc(C(=O)N3CCN(C)CC3)cc2)nnc1N)c1c(Cl)ccc(F)c1Cl" is less than 10%?
Condition not met

Could you please tell me whether growth recorded for COC(=O)C1=C(C(=O)OC)C23C=C(C)C1C2=C(C)C1(CC1)[C@@](C)(O)C3=O (some centres not stated) is less than 10%?
Condition met

Could you please tell me whether growth recorded for "CN1CCN(c2ccc(C(=O)Nc3n[nH]c4ccc(Cc5cc(F)cc(F)c5)cc34)c(NC3CCOCC3)c2)CC1" is less than 10%?
Condition met

Hey, just so you know, these numbers are from PubChem BioAssay (NCI).
